This section lists pKi readings for Prothrombin (Homo sapiens, UniProt P00734).
pKi: −log10 of the molar value.

| mol smiles | pKi |
| --- | --- |
| Nc1cc(-n2nnnc2C(=O)Nc2ccc(-c3ccccc3S(N)(=O)=O)cc2Cl)ccc1Cl | 5.80 |
| Nc1cc(-n2nnnc2C(=O)Nc2ccc(C(=O)N3CCCC3)cc2F)ccc1Cl | 5.92 |
| COc1ccc(-n2nnnc2C(=O)Nc2ccc(-c3ccccc3S(N)(=O)=O)cc2)cc1 | 5.00 |

====

- procedure text: Clearance after intravenous administration of 0.5 mg/kg in dog was determined
- Format: ADME, organism-based, Canis lupus familiaris
- Design: dose 0.5 mg/kg, route intravenous
- condition parameters: in vivo
measurement type: clearance (mL/min/kg)

| mol smiles | measurement type | reported result |
| --- | --- | --- |
| Nc1noc2ccc(-n3nnnc3C(=O)Nc3ccc(-c4ccccc4S(N)(=O)=O)cc3F)cc12 | clearance | 5 |
